These data points were gathered from patent US9796733B2.

- Tested System: sGC α1/β1 heterodimer (Homo sapiens, UniProt Q02108+Q02153)
- Construct: expressed in transfected cells; host or cells: CHO-K1 (clone #7, CHO-K1/sGC)
- Sequence (Q02108 1-690): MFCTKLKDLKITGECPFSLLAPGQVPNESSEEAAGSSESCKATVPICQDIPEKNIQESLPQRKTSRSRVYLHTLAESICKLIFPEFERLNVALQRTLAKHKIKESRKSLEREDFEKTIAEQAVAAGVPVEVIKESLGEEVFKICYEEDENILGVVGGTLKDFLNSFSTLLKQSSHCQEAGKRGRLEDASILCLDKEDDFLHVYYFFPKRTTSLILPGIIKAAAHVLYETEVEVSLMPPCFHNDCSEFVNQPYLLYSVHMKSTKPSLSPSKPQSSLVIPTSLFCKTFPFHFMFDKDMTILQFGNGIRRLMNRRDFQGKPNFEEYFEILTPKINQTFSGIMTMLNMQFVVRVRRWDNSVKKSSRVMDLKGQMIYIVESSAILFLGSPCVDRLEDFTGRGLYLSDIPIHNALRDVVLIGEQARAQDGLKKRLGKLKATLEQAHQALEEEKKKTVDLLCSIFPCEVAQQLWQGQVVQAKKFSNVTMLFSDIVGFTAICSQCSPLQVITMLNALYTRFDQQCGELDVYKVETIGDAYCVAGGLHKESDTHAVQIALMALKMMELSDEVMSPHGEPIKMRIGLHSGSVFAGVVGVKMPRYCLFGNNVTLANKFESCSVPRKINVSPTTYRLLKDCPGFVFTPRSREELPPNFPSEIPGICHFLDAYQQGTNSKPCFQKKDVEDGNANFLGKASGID
- Sequence (Q02153 1-619): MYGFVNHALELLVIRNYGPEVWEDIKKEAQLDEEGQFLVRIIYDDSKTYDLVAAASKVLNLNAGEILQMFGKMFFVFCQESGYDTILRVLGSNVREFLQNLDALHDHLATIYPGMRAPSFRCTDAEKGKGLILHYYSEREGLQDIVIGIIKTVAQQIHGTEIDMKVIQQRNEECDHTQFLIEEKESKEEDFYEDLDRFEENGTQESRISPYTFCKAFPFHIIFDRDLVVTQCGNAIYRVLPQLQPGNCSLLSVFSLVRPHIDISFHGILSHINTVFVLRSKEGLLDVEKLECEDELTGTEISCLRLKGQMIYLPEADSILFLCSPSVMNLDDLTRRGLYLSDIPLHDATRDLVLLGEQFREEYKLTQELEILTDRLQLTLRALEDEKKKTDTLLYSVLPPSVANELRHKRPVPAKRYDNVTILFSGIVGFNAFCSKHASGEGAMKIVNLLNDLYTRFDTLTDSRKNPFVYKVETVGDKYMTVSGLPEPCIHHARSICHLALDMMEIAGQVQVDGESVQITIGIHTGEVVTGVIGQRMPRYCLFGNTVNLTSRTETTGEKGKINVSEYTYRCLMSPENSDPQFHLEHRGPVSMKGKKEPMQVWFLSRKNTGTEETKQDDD
- Experiment Notes: Cell-based sGC functional assay (CASA assay): cGMP generation in CHO-K1/sGC cells, HTRF detection
- Study Conditions: CHO-K1, percent activation relative to standard Compound A in CHO-K1/sGC cells; read-out: % Act.
Metric Name: Emax (%)

Examples with their reported Emax follow.
{"Molecule": "Cc1cnc2c(Cc3ccc(F)cc3)nc(-c3nc(N)c4c(n3)NC(=O)C4(C)c3ccc(F)cn3)cn12 (centres unmarked) [Example 163B]", "Tested System": "sGC α1/β1 heterodimer (Homo sapiens, UniProt Q02108+Q02153)", "Metric Name": "Emax", "Quantity Unit": "%", "Result Value": 84}
{"Molecule": "CC1(C)C(=O)Nc2nc(-c3cn4ccnc4c(Cc4cccc(Cl)c4)n3)nc(N)c21", "Tested System": "sGC α1/β1 heterodimer (Homo sapiens, UniProt Q02108+Q02153)", "Metric Name": "Emax", "Quantity Unit": "%", "Result Value": 94}
{"Molecule": "CC1(c2ccc(Cl)c(F)c2)C(=O)Nc2nc(-c3cn4ccnc4c(CCC(F)(F)F)n3)nc(N)c21 (centres unmarked) [Example 178B]", "Tested System": "sGC α1/β1 heterodimer (Homo sapiens, UniProt Q02108+Q02153)", "Metric Name": "Emax", "Quantity Unit": "%", "Result Value": 106}

(P) Cc1nnc(C2(C)C(=O)Nc3nc(-c4cn5ccnc5c(CCC(F)(F)C(F)(F)F)n4)nc(N)c32)s1 (centres unmarked) [Example 58A]
(Q) CC1(c2nnc(C3CC3)s2)C(=O)Nc2nc(-c3cn4ccnc4c(Cc4ccc(F)cc4)n3)nc(N)c21 (centres unmarked) [Example 32A]
Ask: Would you let me know which has the greater Emax value, P or Q ? Reply with the label of the item you choose.
Result: Q
